assay: in vivo; conditions: BALB/c, mouse
Where a name gives a salt, the structure may show the parent alone.
measurementName: half-life (min)
Answers are plain numbers, in min.

The compound listed as CC[C@@]1(O)C(=O)OCc2c1cc1n(c2=O)Cc2cc3c(CN(C)C)c(O)ccc3nc2-1 [TPTC, topotecan hydrochloride] has a reported half-life of 5.9

====

test: in vivo; conditions: BALB/c, mouse, iv, 2 mg/kg
Where a name gives a salt, the structure may show the parent alone.
measurementName: half-life (min)
Give bare numbers, in min.

The molecule listed as CC[C@@]1(O)C(=O)OCc2c1cc1n(c2=O)Cc2cc3c(CN(C)C)c(O)ccc3nc2-1 [TPTC, topotecan hydrochloride] has a reported half-life of 5.4
